System: MB2114 melanoma line
Assay: ATP viability assay (Cell Titer-Glo)
Type: cell-based
Settings: Homo sapiens; MB2114, BRAF V600E, 48 h
Can you tell me IC50 for the items I'm about to list?

{"columns": ["compound-structure", "IC50"],
 "data": [
  ["Cc1c(-c2c(-c3ccc(F)o3)sc3ncnc(O[C@H](Cc4ccccc4OCc4ccnn4CC(F)(F)F)C(=O)O)c23)ccc(OCCN2CCN(C)CC2)c1Cl", "> 10 µM"]
]}

From here, focus on the item given below.
Request: Requested read-out IC50, target or system MB2114 melanoma line, entry CC1(C)CCC(CN2CCN(c3ccc(C(=O)NS(=O)(=O)c4ccc(NCC5CCOCC5)c([N+](=O)[O-])c4)c(Oc4cnc5[nH]ccc5c4)c3)CC2)=C(c2ccc(Cl)cc2)C1
Response: > 10 µM
